These measurements were taken from ChEMBL document CHEMBL3301361.

- Test Description: physchem
- Experimental Conditions: octan-1-ol/water, pH 7.4, LogD7.4
Each entry gets NOT MET if its logD stays under 2, and MET if its logD is 2 or above.

Cc1ccccc1NC(=O)CCS(=O)(=O)c1ccc(Br)s1 : MET
COC(=O)[C@H](c1ccccc1Cl)N1CCc2sccc2C1 : MET
O=c1[nH]c2c(O)ccc([C@@H](O)CNCCOCCCNCCc3cccc(Cl)c3)c2s1 : NOT MET
CCn1cc(C(=O)O)c(=O)c2cc(F)c(N3CCNCC3)nc21 : NOT MET
CC(C)Oc1cc(Nc2nc3c(cc2F)ncn3[C@@H](CO)c2ccc(F)cn2)n[nH]1 : MET
COc1cc(N2CCN(C(C)=O)CC2)ccc1Nc1ncc(Cl)c(-c2cnc3cc(CO)ccn23)n1 : MET
CCN(CCO)CCCOc1cc2ncnc(Nc3cc(CC(=O)Nc4cccc(F)c4)[nH]n3)c2cc1OC : MET
CCN(c1ccccc1)c1cc(NC)[n+](C)c(C)n1 : NOT MET
Cc1cc2n[nH]c(=O)n2c2cc(-c3ccc(C(=O)N4CCOCC4)cc3)ccc12 : MET
O=c1cc(N2CCOCC2)oc2c(-c3cccc4c5c(sc34)CCCC5)cccc12 : MET
O=C1CN(C(=O)c2ccco2)C(c2ccccc2)c2cc(Cl)ccc2N1 (stereo unspecified) : MET
O=c1[nH]c2c(O)ccc([C@@H](O)CNCCOc3cccc(CNCCc4ccccc4F)c3)c2s1 : NOT MET
CCO/N=C(\c1ccc(Br)cc1)C1CCN(C2(C)CCN(C(=O)c3c(C)cc[n+]([O-])c3C)CC2)CC1 : MET
O=C(NC[C@@H](O)CN1CCC(Oc2ccc(Cl)c(Cl)c2)CC1)c1c[nH]c(=O)c2ccc(F)cc12 : MET
O=C(Nc1cccc(Cl)c1)N1CCN(C[C@@H]2CCCN(C3CC3)C2)CC1 : MET
Cc1ccc(CO)cc1N(C)c1ccnc(Nc2cc(N3CCOCC3)nc(N3CCOCC3)n2)n1 : MET
Nc1ccn([C@@H]2O[C@H](CO)[C@@H](O)C2(F)F)c(=O)n1 : NOT MET
COc1cc(C(=O)NS(=O)(=O)c2ccccc2)ccc1Cn1ccc2ccc(NC(=O)OC3CCCC3)cc21 : MET
Cc1cc(C)nc(SCC(=O)Nc2cc(C)on2)n1 : NOT MET
CC1(O)CN(S(=O)(=O)c2ccc3c(C(=O)NC[C@@H](O)CN4CCC(Oc5ccc(Cl)c(Cl)c5)CC4)c[nH]c(=O)c3c2)C1 : MET
O=c1[nH]c2c(O)ccc([C@@H](O)CNCCc3cccc(CNCCc4ccccc4Cl)c3)c2s1 : NOT MET
O=S(=O)(Nc1cccnc1)c1cccs1 : NOT MET
CCc1c(C)nc(SCC(=O)Nc2nc(-c3ccc(OC)cc3)cs2)nc1O : MET
COc1cccc(-c2c[nH]c(-c3ccccc3)n2)c1 : MET
C[C@]12Cc3cnn(-c4ccc(F)cc4)c3C=C1CC[C@@]2(O)CCc1ccc(F)cc1C(N)=O : MET
CN1CCc2c1nc1ccccc1c2NC(=O)Cc1ccccc1 : MET
CNc1nc(C)c(-c2nc(Nc3cccc(N4CCNCC4)c3)ncc2C#N)s1 : NOT MET
Clc1ccc2c(c1Nc1ccnc(Nc3cc(N4CCOCC4)cc(N4CCOCC4)c3)n1)OCO2 : MET
CN[C@@H](C)C(=O)N[C@H](C(=O)N[C@H]1CCCN(CCc2ccccn2)C1)C(C)(C)C : NOT MET
COc1ccc(C(=O)NCc2cccnc2)cc1C(=O)NCc1cccnc1 [PICOTAMIDE] : NOT MET
CCOc1ccc(CCNCCCSCCNC[C@H](O)c2ccc(O)c3[nH]c(=O)sc23)cc1 : NOT MET
Cc1ccc(S(=O)(=O)N2N=Cc3ccccc3B2O)cc1 : NOT MET
Nc1ncnc(Nc2ccccc2)n1 : NOT MET
C#Cc1cccc(Nc2nc3cc(C(=O)O)ccc3c3cncnc23)c1 : NOT MET
O=C(COCc1cscn1)N1CCN(c2ccc(Cl)cc2Cl)CC1 : MET
CC1(c2ccc(Cl)c(Cl)c2)CC(=O)NC(N)=N1 (stereo unspecified) : NOT MET
CC(=O)N(C)c1ccc2ccn(-c3cc(NC4CC4)n4ncc(C#N)c4n3)c2c1 : MET
CCCCCc1cc(=O)[nH]c(N)n1 : NOT MET
O=C1CCCc2nc(C#Cc3ccccc3)ccc21 : MET
CNC(=O)Nc1cc(-c2ccccc2)sc1C(N)=O : MET
